target_entity: Acetylcholinesterase (Mus musculus, UniProt P21836)
Sequence (P21836 whole entry): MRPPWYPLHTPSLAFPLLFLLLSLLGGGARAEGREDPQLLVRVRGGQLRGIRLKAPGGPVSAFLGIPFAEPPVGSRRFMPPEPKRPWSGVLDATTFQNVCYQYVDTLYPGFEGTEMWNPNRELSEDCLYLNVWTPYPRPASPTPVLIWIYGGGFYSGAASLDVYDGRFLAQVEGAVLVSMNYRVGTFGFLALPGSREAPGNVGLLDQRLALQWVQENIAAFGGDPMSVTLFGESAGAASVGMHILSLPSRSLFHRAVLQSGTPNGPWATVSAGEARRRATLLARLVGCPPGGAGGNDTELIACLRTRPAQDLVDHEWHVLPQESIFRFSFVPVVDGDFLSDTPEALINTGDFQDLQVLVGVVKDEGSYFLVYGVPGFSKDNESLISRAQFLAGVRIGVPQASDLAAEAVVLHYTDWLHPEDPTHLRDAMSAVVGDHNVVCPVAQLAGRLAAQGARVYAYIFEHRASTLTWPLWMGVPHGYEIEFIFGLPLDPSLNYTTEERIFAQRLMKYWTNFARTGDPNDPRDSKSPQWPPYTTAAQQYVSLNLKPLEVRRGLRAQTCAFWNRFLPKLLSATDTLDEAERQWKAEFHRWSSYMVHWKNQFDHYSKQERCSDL
observation_type: IC50 (nM)
Write it as a number; the unit nM goes unstated.

Task: Please indicate recorded IC50 of CO/C(=C\C1CCN(Cc2ccccc2)CC1)S(=O)(=O)c1ccc(OC)c(OC)c1 measured with Acetylcholinesterase (Mus musculus, UniProt P21836).
Result: 8440

Task: Using Acetylcholinesterase (Mus musculus, UniProt P21836) as the test system, report measured IC50 of COc1cc2c(cc1OC)S(=O)(=O)C(CC1(F)CCN(Cc3ccc(F)c(Cl)c3)CC1)C2 (stereo unspecified) .
Result: 12.9

Task: System Acetylcholinesterase (Mus musculus, UniProt P21836). Read-out IC50. Item COc1cc2c(cc1OC)S(=O)(=O)C(CC1(F)CCN(Cc3ccccc3C(F)(F)F)CC1)C2 (stereo unspecified) . Report value.
Result: 3010

Task: Please report IC50 with Acetylcholinesterase (Mus musculus, UniProt P21836) for item COc1cc2c(cc1OC)S(=O)(=O)C(CC1(F)CCN(Cc3ccccc3Cl)CC1)C2 (stereo unspecified) .
Result: 5.5

Task: Given COc1cc2c(cc1OC)S(=O)(=O)C(CC1(F)CCN(Cc3cccc(C)c3)CC1)C2 (stereo unspecified) , report its IC50 on Acetylcholinesterase (Mus musculus, UniProt P21836).
Result: 3.8

Task: # return IC50 of COc1cc2c(cc1OC)S(=O)(=O)C(CC1(F)CCN(Cc3cccc(F)c3)CC1)C2 (stereo unspecified) (system: Acetylcholinesterase (Mus musculus, UniProt P21836))
Result: 5.1

Task: Retrieve IC50 on Acetylcholinesterase (Mus musculus, UniProt P21836); query COc1cc2c(cc1OC)S(=O)(=O)/C(=C\C1CCN(Cc3ccccc3)CC1)C2
Result: 11.1

Task: Look up Acetylcholinesterase (Mus musculus, UniProt P21836) data: IC50 of COc1cc2c(cc1OC)S(=O)(=O)C(CC1(F)CCN(Cc3ccccc3F)CC1)C2 (stereo unspecified) , then report it.
Result: 8.5

Task: Name the recorded IC50 of COc1cc2c(cc1OC)S(=O)(=O)C(CC1CCN(Cc3cccc(F)c3)CC1)C2 (stereo unspecified) , assay system Acetylcholinesterase (Mus musculus, UniProt P21836).
Result: 4.4

Task: Consider the molecule COc1cc2c(cc1OC)S(=O)(=O)C(CC1(F)CCN(Cc3ccc(F)cc3F)CC1)C2 (stereo unspecified) tested on Acetylcholinesterase (Mus musculus, UniProt P21836); state its IC50.
Result: 7.1

Task: # lookup: Acetylcholinesterase (Mus musculus, UniProt P21836) IC50, key = COc1ccc(S(=O)(=O)/C(Cl)=C/C2CCN(Cc3ccccc3)CC2)cc1OC
Result: 340

Task: Give IC50 for COc1cc2c(cc1OC)S(=O)(=O)C(CC1(F)CCN(Cc3ccccc3)CC1)C2 (stereo unspecified) tested on Acetylcholinesterase (Mus musculus, UniProt P21836).
Result: 4.1

Task: Provide IC50, tested on Acetylcholinesterase (Mus musculus, UniProt P21836), for COc1cc2c(cc1OC)S(=O)(=O)C(F)(CC1CCN(Cc3cccc(F)c3)CC1)C2 (stereo unspecified) .
Result: 2.4

Task: Send back Acetylcholinesterase (Mus musculus, UniProt P21836) IC50 of COc1cc2c(cc1OC)S(=O)(=O)C(CC1(F)CCN(Cc3ccc(F)cc3)CC1)C2 (stereo unspecified) only.
Result: 11.3

Task: Recall the reported IC50 of COc1cc2c(cc1OC)S(=O)(=O)C(CC1CCN(Cc3c(F)cc(F)cc3F)CC1)C2 (stereo unspecified) on Acetylcholinesterase (Mus musculus, UniProt P21836) and write it down.
Result: 128

Task: Output reported IC50 of the molecule COc1cc2c(cc1OC)S(=O)(=O)/C(=C/C1CCN(Cc3ccccc3)CC1)C2 on Acetylcholinesterase (Mus musculus, UniProt P21836).
Result: 4.7

From: ChEMBL document CHEMBL5154822
